Target Desc: Abeta 1-42 globulomer, P05067
Assay Remarks: MPA bead capture, CSF + 1 ng/mL globulomer, Abeta immunoassay

| Binder | average RLU (42) / RLU |
| --- | --- |
| FKFKKK (modifications not checked) [link-FKFKKK] | 808 |
| IRYVTHQYILWP (modifications not checked) […] | 3240 |
| FKFNLFSG (modifications not checked) | 3230 |
| AAKKKA (modifications not checked) | 247 |
| FKFSLFSG (modifications not checked) | 3080 |
| AKKKKK (modifications not checked) | 442 |
| DFKLNFKF (modifications not checked) | 516 |
| KKKFKF (modifications not checked) [KKKFKF-link] | 748 |
| AAKKAA (modifications not checked) | 160 |
